Hey, just so you know, these numbers are from paper PMC11686114.

Biological target: T1, TRBV5-1 antigenic peptide No. 1 (TQTPRYLIKTRGQQ), biotinylated (Homo sapiens, also: biotinylated (site not given here))
T1 construct: short form of antigenic peptide No. 1 of the TRBV5-1 segment of the human TCR beta chain; probably held on streptavidin, since its control is PBS-streptavidin (surmise); also called Ag3; peptide-biotin; source: synthetic peptide (Proteogenix)
T1 chain: TQTPRYLIKTRGQQ
Experiment: ELISA; confirmatory monoclonal phage ELISA; antigens peptide alone, peptide-BSA, peptide-biotin; controls PBS, 10% BSA-PBS, PBS-streptavidin; phage dilution factors 1, 3, 9
Conditions: one partner purified
Ends that are not written are not given here.
Readings of ELISA signal at phage dilution factor 1 for the listed binders

- binder: "scFv clone A2 (scFv, V domains shown, tested as phage clone in the confirmatory monoclonal ELISA; source: phage display clone from the human naive scFv library LiAb-SFMAX (Proteogenix), amplified in E. coli TG1) VH: QVQLQQSGPGLVKPSQTLSLTCAISGDSVSSNSAAWNWIRQSPSRGLEWLGRTYYRSKWYNDYAVSVKSRITINPDTSKNQFSLQLNSVTPEDTAVYYCARDQAAAEVYFDYWGQGTLVTVSS VL: NFMLTQPHSVSESPGKTVTISCTRSSGSIASNYLQWYQQRPGSAPTTVIYEDNQRPSGVPDRFSGSIDSSSNSASLTISGLKTEDEADYYCQSYDNRNHWVFGGGTQLTVL"
  ELISA signal at phage dilution factor 1: 2.46
- binder: "scFv clone D5 (scFv, V domains shown, tested as phage clone in the confirmatory monoclonal ELISA; source: phage display clone from the human naive scFv library LiAb-SFMAX (Proteogenix), amplified in E. coli TG1) VH: QVQLVQSGAEVKKPGASVKVSCKPSGYYFNGYDITWVRQAIGQGLEWMGWMNPNSGNRDYAHQFQGRLTMTWDTSLSTAYLELNNLQSDDTAIYYCARERVSSGLDFWGQGTLVTVSS VL: SYELTQPPSVSVSPGQTARITCSGDALPKQYAYWYQQKPGQAPVLLIYKDSERPSGIPERFSGSSSGTTVTLTISGVQAEDEADYYCQSADSSGTYVVFGGGTQLTVL"
  ELISA signal at phage dilution factor 1: 2.38
- binder: "scFv clone C10 (scFv, V domains shown, tested as phage clone in the confirmatory monoclonal ELISA; source: phage display clone from the human naive scFv library LiAb-SFMAX (Proteogenix), amplified in E. coli TG1) VH: EVQLVQSGAEVKKPGSSVKVSCKASGGTFSSYAISWVRQAPGQGLEWMGGIIPIFGTANYAQKFQGRVTITADKSTSTAYMELSSLRSEDTAVYYCAREPLRGYSGYDFYYYGMDVWGQGTMVTVSS VL: SYELTQPHSVSGSPGETVTISCAGSGGSIASNYVQWYQQRPGSAPTTLIYEDKVRPSGVPDRFSGSIDYSSDSASLTISGLKTEDEADYYCQSADSTSTYVFGTGTKVTVL"
  ELISA signal at phage dilution factor 1: 2.11
